Values compiled from PubChem BioAssay (NCI).

Tested on: UO-31 renal
MEASUREMENT_NOTES: NCI-60 one-dose screen, 48 h (100 = growth as untreated, 0 = no growth, -100 = all killed)
MEASUREMENT_SETUP: 10 µM unless noted
This is part of a sample that, as a whole, favours compounds with a hit. Of some 83,000 tested, about 20% had one in any assay.
So I've got a bunch of compounds here, and I need their growth values.
One number for each entry, in %.

[[record]]
compound = "CCOC(=O)NNc1nncc2ccccc12"
measure_unit = "%"
result_value = 90.4

[[record]]
compound = "C[C@H]1C=C(C[C@@H](O)CCCCCCCCCC[C@@H](O)[C@H]2CCC(=O)O2)C(=O)O1"
measure_unit = "%"
result_value = 82

[[record]]
compound = "CCC(C)Nc1ccc(N)cc1 (stereo not given)"
measure_unit = "%"
result_value = -2.85

[[record]]
compound = "CC(C)Cn1cnc2c3ccccc3nc(NCn3nc(-c4cc(Cl)cc(Cl)c4Cl)oc3=S)c21"
measure_unit = "%"
result_value = 64.8


Next item in the queue.
Form field: growth recorded for O=C(Nc1cccc(-n2ccc3c(NC(=O)c4ccccc4)nccc32)c1)Nc1ccc(Cl)c(C(F)(F)F)c1 with UO-31 renal (enter value)
27.8

---

Tested on: PC-3 prostate
MEASUREMENT_NOTES: NCI-60 one-dose screen, 48 h
MEASUREMENT_SETUP: 10 µM unless noted
The panel holds about 83,000 compounds, 20% with a hit somewhere; the sample as a whole holds those more often. Activity calls are given as the source filed them. How the source made its calls: active means growth percent below 10; inactive means the rest.
Parameter call: string, one of active, inactive

Here's what some known entries look like.
[[record]]
given_smiles = "COc1ccc(/C(Cl)=N/N=C(\\Cl)c2cc(OC)c(OC)c(OC)c2)cc1OC(C)=O"
category_label = "inactive"

[[record]]
given_smiles = "O=C(Nc1ccc(F)cc1)Nc1ccc(Cl)c([N+](=O)[O-])c1"
category_label = "active"

[[record]]
given_smiles = "C#C[C@H](O)/C=C/CCCCCCC#C[C@H](O)CC[C@@H](O)C#CCCCCCC/C=C/[C@@H](O)C#C"
category_label = "inactive"

[[record]]
given_smiles = "CSc1nc(N)nc2c1ncn2C"
category_label = "inactive"

[[record]]
given_smiles = "CC(=S)Nc1ccccc1"
category_label = "inactive"


Shifting focus to the compound that follows.
Could you please tell me the result logged for Nc1nc(Nc2ccc(OCc3cccc(F)c3)cc2)c2c(n1)[nH]c1ccc(O)cc12 in this assay?
active

---

System: KM12 colon
MEASUREMENT_NOTES: NCI-60 one-dose screen, 48 h
MEASUREMENT_SETUP: 10 µM unless noted
About 83,000 compounds went through this panel and 20% of them were active in at least one assay; those are over-represented in the sample as a whole. Calls of active or inactive are those of the source. How the source made its calls: active means growth percent below 10; inactive means the rest.
Write down one outcome, taken from active, inactive

// known answers, use as guide
[[record]]
compound = "CCOC(=O)c1noc2c1CCc1c-2cn(Cc2ccc(OC)cc2)c1-c1cc(OC)c(OC)c(OC)c1"
assay_target = "KM12 colon"
category_label = "inactive"

[[record]]
compound = "O=C(CSc1nnc(-c2ccccc2)o1)Nc1ccc(C(=O)/C=C/c2ccccc2)cc1"
assay_target = "KM12 colon"
category_label = "inactive"

[[record]]
compound = "CCN(CC)C(=O)C1CCN(C(=O)c2ccccc2)CC1"
assay_target = "KM12 colon"
category_label = "inactive"

[[record]]
compound = "CC(C)[C@@H]1NC(=O)[C@]2(C)CSC(=N2)c2ccnc(c2)CNC(=O)C[C@@H](/C=C/CCS)OC1=O"
assay_target = "KM12 colon"
category_label = "active"

[[record]]
compound = "Cc1cc[n+](CCCC[n+]2ccc(C)cc2)cc1"
assay_target = "KM12 colon"
category_label = "inactive"

[[record]]
compound = "C=CC(=O)NC(=O)Nc1ccccc1Cl"
assay_target = "KM12 colon"
category_label = "inactive"


Identify the outcome logged in this assay for the compound shown: C#C[C@@]1(O)[C@@H](CO)O[C@@H](n2cc(Br)c3c(Cl)ccnc32)[C@@H]1O
inactive

Try C#C[C@H](O)/C=C/CCCCCCC#C[C@H](O)CC[C@@H](O)C#CCCCCCC/C=C/[C@@H](O)C#C next.
inactive

Try the compound CC(C)Cn1cnc2c3ccccc3nc(NCn3nc(-c4cc(Cl)cc(Cl)c4Cl)oc3=S)c21
inactive

Next compound up: CS(=O)(=O)OCC(COS(C)(=O)=O)C(c1ccccc1)c1ccccc1
inactive

And what about the compound O=C(O)c1ccc2nc(-c3ccc(OCCCCCOc4ccc(-c5nc6ccc(C(=O)O)cc6[nH]5)cc4)cc3)[nH]c2c1 ?
inactive
